Listing of entries alongside the reported Papp at 10 µM.
- Protocol details: Apparent permeability in human Caco2 cells at 10 uM after 45 to 120 mins by LC/MS/MS analysis
- Assay type: ADME, cell-based
- Measurement parameters: Caco-2
Assay endpoint: Papp at 10 µM (×10⁻⁶ cm/s)

Test smiles: NC(=O)C[C@H]1CNc2cc(Cl)ccc2N1C(=O)c1ccc2c(c1)NC(=O)CO2
Rel: <
Numeric value: 0.81
//
Test smiles: CNC(=O)C[C@H]1COc2cc(Cl)cc(C)c2N1C(=O)c1ccc2c(c1)NC(=O)CO2
Rel: =
Numeric value: 7.8
//
Test smiles: NC(=O)C[C@H]1COc2cc(Cl)ccc2N1C(=O)c1ccc2c(c1)NC(=O)CO2
Rel: =
Numeric value: 5.6
//
Test smiles: CNC(=O)C[C@H]1COc2cc(F)ccc2N1C(=O)c1ccc2c(c1)NC(=O)CO2
Rel: =
Numeric value: 5
//
Test smiles: Cc1ccc2c(c1)OC[C@](C)(CS(C)(=O)=O)N2C(=O)c1ccc2c(c1)NC(=O)CO2
Rel: =
Numeric value: 38
//
Test smiles: CNC(=O)C[C@H]1COc2cc(C)ccc2N1C(=O)c1ccc2c(c1)NC(=O)CO2
Rel: =
Numeric value: 14
//
Test smiles: CNC(=O)C[C@H]1COc2cc(Br)ccc2N1C(=O)c1ccc2c(c1)NC(=O)CO2
Rel: =
Numeric value: 23
//
Test smiles: NC(=O)C[C@H]1COCc2cc(F)ccc2N1C(=O)c1ccc2c(c1)NC(=O)CO2
Rel: <
Numeric value: 0.6
